Conditions: Ebola virus entry assay, ratio channel
Calls of active or inactive are those of the source.
// classify into 1 (active), -1 (inactive)

> print(dat)
                                   compound  assignedclass
1  COc1ccc2c(c1)c(CC(=O)OCC(=O)O)c(C)n2C(=O)c1ccc(Cl)cc1             -1
2  O=C(COc1ccc(Cl)cc1)N1CCN(Cc2ccc3c(c2)OCO3)CC1             -1
3        CC(C)CCCC(C)N (stereo unspecified)             -1

query: What did this assay record as the result for CCCCCC(N)=O ?
result: -1

query: In this assay, the call recorded for CN(C)CCCN1c2ccccc2Sc2ccc(C(F)(F)F)cc21 was what?
result: 1

query: Name the outcome recorded for O=C1NC2CCCCN2C12CCN(CCCN1c3ccccc3CCc3ccc(Cl)cc31)CC2 (stereo unspecified) in the assay.
result: 1

====

Conditions: Ebola virus entry assay, reporter ratio channel; Channel type: primary
Activity calls are given as the source filed them.
A correct response names exactly one class from TRUE = active, FALSE = inactive

compound	assignedClass
O=c1n(Cl)c(=O)n(Cl)c(=O)n1Cl	FALSE

query: Fill in: this test's call for COC(=O)C1=C(C)NC(C)=C(C(=O)OCCCN2CCC(c3ccccc3)(c3ccccc3)CC2)C1c1cccc([N+](=O)[O-])c1 (stereo not given) is ___
result: TRUE

query: Could you check what this test reported for Cc1ncc2n1-c1ccc(Cl)cc1C(c1ccccc1F)=NC2 ?
result: FALSE

query: Field: outcome | Entry: C=C1C(=C/C=C2\CCC[C@]3(C)[C@@H]([C@H](C)/C=C/[C@@H](O)C4CC4)CC[C@@H]23)C[C@@H](O)C[C@@H]1O
result: TRUE

query: Kindly provide the recorded test outcome for the following compound: Oc1c(I)cc(Cl)c2cccnc12
result: FALSE

query: Recorded test outcome, item NC(N)=NCCC[C@H](N)C(=O)O
result: FALSE

query: What did the test return for Cc1cc(NC(=O)C2=C(O)c3ccccc3S(=O)(=O)N2C)no1 ?
result: FALSE

query: Returns: the outcome recorded for CCN(CC)CCOC(=O)C(c1ccccc1)c1ccccc1 in this assay.
result: TRUE

query: Hi, do you know how CCC(C(=O)OCCOCCN(CC)CC)c1ccccc1 (stereo not given) came out in this test?
result: TRUE

query: Please indicate how the test categorized NC(=O)C1(N2CCCCC2)CCN(CCCN2c3ccccc3CCc3ccc(Cl)cc32)CC1 .
result: TRUE

query: Please let me know the test result on file for O=C1c2cccc(O)c2C(=O)c2c(O)cccc21 .
result: FALSE

query: Fill in: this test's call for C1CCN2C[C@@H]3C[C@@H](CN4CCCC[C@@H]34)[C@H]2C1 is ___
result: FALSE

query: Could you check what this test reported for CCCCC1C(=O)NC(=O)N(C2CCCCC2)C1=O (stereo not given) ?
result: FALSE

query: Assay outcome for O=C(CCCN1CCC(O)(c2cccc(C(F)(F)F)c2)CC1)c1ccc(F)cc1 : what was it?
result: TRUE

query: For O=C1Nc2ccccc2C1(c1ccc(O)cc1)c1ccc(O)cc1 , which call appears in the assay record?
result: FALSE

query: // param item: C[C@H](O)C(=O)Nc1c(I)c(C(=O)NC(CO)CO)c(I)c(C(=O)NC(CO)CO)c1I ; yields the recorded call
result: FALSE

====

Tested on: MKL-1
Test: qHTS assay to identify novel small-molecules to repurpose for Merkel cell carcinoma treatment (AID 1296009); also: % is scaled to controls: 0 for no effect and ±100 for the full control effect; nearly all actives have a fitted effect of over 60% in size
Conditions: MCC and control cell lines, CellTiter-Glo viability, 72 h; series mostly up to 46 µM
Inconclusive results are not listed. The source made the active and inactive calls. Calls come from the whole dose curve; as a rule, active = well fitted inhibition curve with a large enough effect; inconclusive = small, poorly fitted or top-dose-only effect; inactive = flat fitted curve, though single readings scatter.
experimentalEndpoint: outcome

> print(dat)
                                    molecule  experimentalendpoint  readoutvalue
 1    CC(Cc1ccccc1)NCCCCl (stereo not drawn)               outcome      inactive
 2  CC(C)C(Br)C(=O)NC(N)=O (stereo not drawn)               outcome      inactive
 3                       COC(=O)C1=CCCN(C)C1               outcome      inactive
 4     CCOC(C(=O)OCCN(C)C)(c1ccccc1)c1ccccc1               outcome      inactive
 5                CN(C)CCc1c[nH]c2ccc(O)cc12               outcome      inactive
 6      Cc1ccc(N=CN(C)C=Nc2ccc(C)cc2C)c(C)c1               outcome      inactive
 7  CCN(CC)Cc1nccn1-c1ccc([N+](=O)[O-])cc1C(=O)c1ccccc1Cl               outcome      inactive
 8                c1cc2c(c(N3CCNCC3)c1)OCCO2               outcome      inactive
 9  COCC(=O)N(c1c(C)cccc1C)C(C)C(=O)OC (stereo not drawn)               outcome      inactive
10                      CCNc1nc(Cl)nc(NCC)n1               outcome      inactive

Please go through the list and note outcome for each molecule.
1. CCCC(C)C1(CC)C(=O)N=C(S)NC1=O (stereo not drawn)
2. OC(c1ccccc1)(c1ccccc1)C1CCNCC1
3. CCOC(=O)c1cncn1C(C)c1ccccc1 (stereo not drawn)

result:
1: inactive; 2: inactive; 3: inactive

====

Conditions: Ebola virus entry assay, green fluorescence channel
Measured potencies and affinities stand elsewhere.
efficacy vs 20%: less than gives 1; not less than gives -1.

inputSmiles	assignedClass
CN1CCC(N(Cc2ccccc2)c2ccccc2)CC1	-1

query: Quick check: efficacy of COc1ccc(-c2cc(C(F)F)nn2-c2ccc(S(N)(=O)=O)cc2)cc1F under 20%?
result: -1

query: Is it true that efficacy reported for COc1ccc2[nH]cc(CCN(C(C)C)C(C)C)c2c1 is less than 20%?
result: -1

====

Target: Bile acid receptor (Homo sapiens) (UniProt Q96RI1)
Sequence (Q96RI1 whole entry, looked up): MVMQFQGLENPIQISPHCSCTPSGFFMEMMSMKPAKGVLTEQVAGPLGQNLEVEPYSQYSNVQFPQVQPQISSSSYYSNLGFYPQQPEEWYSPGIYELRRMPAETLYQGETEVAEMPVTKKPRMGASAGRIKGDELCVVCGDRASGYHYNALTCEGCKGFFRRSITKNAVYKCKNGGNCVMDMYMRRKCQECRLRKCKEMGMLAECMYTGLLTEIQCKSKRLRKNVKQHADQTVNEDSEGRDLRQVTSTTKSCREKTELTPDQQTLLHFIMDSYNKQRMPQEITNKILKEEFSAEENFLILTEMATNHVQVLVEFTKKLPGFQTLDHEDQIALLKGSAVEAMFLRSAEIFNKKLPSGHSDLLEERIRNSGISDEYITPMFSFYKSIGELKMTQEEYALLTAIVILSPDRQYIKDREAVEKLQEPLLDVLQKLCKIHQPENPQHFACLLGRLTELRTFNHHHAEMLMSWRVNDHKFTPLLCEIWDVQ
Assay: qHTS assay for small molecule agonists of farnesoid X receptor signaling (AID 588527);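 also: 0% = vehicle basal and 100% = reference agonist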
Conditions: HEK293T FXR-UAS-bla, beta-lactamase ratio, 16 h; stronger effect = higher value
Records with an inconclusive call do not appear.
experimentalEndpoint: activation (%)
One number for each entry, in %.

> print(dat)
                                inputsmiles  experimentalendpoint  valueunits  readoutvalue
1  CCN(CC)CCOc1ccc(/C(=C(\Cl)c2ccccc2)c2ccccc2)cc1            activation           %          1.52
2  CC[n+]1c(-c2ccccc2)c2cc(N)ccc2c2ccc(N)cc21            activation           %          9.69
3                     CN(C)C(=S)SC(=S)N(C)C            activation           %           1.4

query: Given the compound Oc1ccc(Cl)cc1Cc1cc(Cl)ccc1O , what is its reported activation?
result: 1.29

====

Biological target: Nucleoprotein (Lymphocytic choriomeningitis virus (strain Armstrong))
Experiment: qHTS for Inhibitors of the Functional Ribonucleoprotein Complex (vRNP) of Lymphocytic Choriomeningitis Arenaviruses (LCMV): LCMV Primary Screen - GLuc reporter signal (AID 1347086); also: nearly all actives have a fitted effect of over 70% in size
Details: LCMV minigenome vRNP cell assay, Gaussia luciferase reporter; series mostly up to 57.5 µM
Records with an inconclusive call do not appear. Calls of active or inactive are those of the source. Calls follow the shape of the full dose curve.
API: response.call in class 1 = active, class 0 = inactive

Completed entries (count: 5):
molecule	assignedClass
CCOC(=O)OC(C)OC(=O)[C@@H]1N2C(=O)[C@@H](NC(=O)[C@H](N)c3ccccc3)[C@H]2SC1(C)C (some centres not stated)	class 0
COCC(=O)O[C@]1(CCN(C)CCCc2nc3ccccc3[nH]2)CCc2cc(F)ccc2[C@@H]1C(C)C	class 0
CC(C)NCC(O)c1ccc(N)c(C#N)c1 (configuration not stated)	class 0
CCCCCN(CCCCC)C(=O)C(CCC(=O)O)NC(=O)c1ccc(Cl)c(Cl)c1 (configuration not stated)	class 0
CN1CCN(c2cc3c(nn2)Oc2ccccc2N3C)CC1	class 0

query: Would you mind telling me which call this test gave C[C@]12Cc3nonc3C[C@@H]1CC[C@@H]1[C@@H]2CC[C@@]2(C)[C@H]1CC[C@]2(C)O ?
result: class 0

query: What did this assay record as the result for Cc1ccc(C(C)OC(=O)C2(C)CCC(C(=O)O)C2(C)C)cc1 (configuration not stated) ?
result: class 0

query: # lookup: test call for CO[C@@H]1[C@@H](OC)[C@H](C)[C@@](O)(CC(=O)O)O[C@H]1[C@H](C)[C@H]1O[C@@]2(CC[C@@](C)([C@H]3CC[C@@](C)([C@@H]4O[C@@H]([C@H]5O[C@](C)(O)[C@H](C)C[C@@H]5C)C[C@@H]4OC4C[C@H](OC)[C@@H](OC)[C@H](C)O4)O3)O2)C[C@H](O)[C@H]1C (some centres not stated)
result: class 1

query: Which outcome did this test record for the molecule O=C(CCN1CCN2CCCC2C1)N1c2ccccc2Sc2ccc(Cl)cc21 (configuration not stated) ?
result: class 0

query: What is the recorded call for this molecule in the test? Clc1ccccc1-c1nc(-c2ccncc2)no1
result: class 0
